- assayed_target: Gal4 DNA binding domain fused to the LBD of LXRα in HEK293 cells (Homo sapiens (Human))
- Sequence (Q13133 209-447): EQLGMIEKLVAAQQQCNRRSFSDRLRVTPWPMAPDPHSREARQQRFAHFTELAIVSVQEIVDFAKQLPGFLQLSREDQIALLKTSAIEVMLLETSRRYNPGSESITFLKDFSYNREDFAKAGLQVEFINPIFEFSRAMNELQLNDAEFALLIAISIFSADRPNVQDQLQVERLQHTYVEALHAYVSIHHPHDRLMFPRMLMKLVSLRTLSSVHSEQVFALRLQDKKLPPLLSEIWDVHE
- test_protocol: LXR luciferase transcriptional reporter gene assay, agonist mode, LXRα
- Format: cell-based
- study_conditions: read-out: Cell LXRα EC50
metric: EC50 (µM)
Return type: number; implicit unit µM.

COC(c1cnc(N2CCN(c3ccc(F)c(S(C)(=O)=O)c3)C[C@H]2C(C)C)nc1)C(F)(F)F (some centres unmarked): 0.763

QUERY: Give EC50; test system Gal4 DNA binding domain fused to the LBD of LXRα in HEK293 cells (Homo sapiens (Human)); molecule CC(C)[C@@H]1CN(c2cccc(S(C)(=O)=O)c2)CCN1c1ccc(C(F)(F)F)c(C2CC2)n1
RESULT: 1.06

QUERY: Give EC50; test system Gal4 DNA binding domain fused to the LBD of LXRα in HEK293 cells (Homo sapiens (Human)); molecule CS(=O)(=O)c1cc(N2CCN(C[C@H]3CC[C@@H](C(F)(F)F)CC3)[C@H](c3ccccc3)C2)ccc1C(N)=O (single isomer, unassigned)
RESULT: 4.83

QUERY: Give EC50; test system Gal4 DNA binding domain fused to the LBD of LXRα in HEK293 cells (Homo sapiens (Human)); molecule CC(C)[C@@H]1CN(c2ccc(F)c(S(C)(=O)=O)c2)CCN1c1ncc(CNS(C)(=O)=O)c(C(F)(F)F)n1
RESULT: 2.32

QUERY: Give EC50; test system Gal4 DNA binding domain fused to the LBD of LXRα in HEK293 cells (Homo sapiens (Human)); molecule CC(C)[C@@H]1CN(c2ccc(F)c(S(C)(=O)=O)c2)CCN1c1nc2ccc(F)cc2s1
RESULT: 0.439

QUERY: Give EC50; test system Gal4 DNA binding domain fused to the LBD of LXRα in HEK293 cells (Homo sapiens (Human)); molecule CC(=O)c1cnc(N2CCN(c3ccc(F)c(S(C)(=O)=O)c3)C[C@H]2C(C)C)nc1C(F)(F)F
RESULT: 0.253

###

This listing pairs compounds with measured EC50.
- assayed_target: Gal4 DNA binding domain fused to the LBD of LXRβ in HEK293 cells (Homo sapiens (Human))
- test_protocol: cell-based
Return type: number; implicit unit nM.

# example entries with known answers
COC(=O)c1cnc(N2CCN(c3ccc(F)c(S(C)(=O)=O)c3)C[C@H]2C(C)C)nc1C(F)(F)F [9-2]: 86
CC(C)[C@H]1CN(c2cccc(S(C)(=O)=O)c2)CCN1C[C@@H]1CC[C@@H](C(F)(F)F)OC1 (single isomer, unassigned) [Cpd No 49-7]: 132
C[C@H](c1ccc(C(F)(F)F)cc1)N1CCN(c2cccc(S(C)(=O)=O)c2)C[C@H]1c1ccccc1 [46-19]: 4350

QUERY: Answer with the recorded EC50 of Cc1ccccc1[C@H]1CN(c2cccc(S(C)(=O)=O)c2)CCN1Cc1ccc(C(F)(F)F)nc1 (single isomer, unassigned) [46-46] only.
RESULT: 1990

QUERY: Answer with the recorded EC50 of Cc1cc(C(F)(F)F)nc(N2CCN(c3ccc(F)c(S(C)(=O)=O)c3)C[C@H]2C(C)C)n1 [7-18] only.
RESULT: 161

###

- assayed_target: Gal4 DNA binding domain fused to the LBD of LXRα in HEK293 cells (Homo sapiens (Human))
- test_protocol: LXR luciferase transcriptional reporter gene assay, agonist mode, LXRα
- Type: cell-based
metric: Cell LXRα efficacy

CC(F)(F)[C@@H]1CN(c2cccc(S(C)(=O)=O)c2)CCN1c1nccc(C(F)(F)F)n1: 1211 (37) %
CC(C)[C@@H]1CN(c2ccc(F)c(S(C)(=O)=O)c2)CCN1c1nc(C(F)(F)F)c(C(C)(C)O)s1: 584 (102) %
CC(C)[C@@H]1CN(c2cccc(S(C)(=O)=O)c2)CCN1c1ncc(Br)cn1: 1282 (85) %
CC(C)[C@H]1CN(c2ccc(CO)c(S(C)(=O)=O)c2)CCN1C[C@@H]1CC[C@@H](C(F)(F)F)OC1: 178 (75) %
CNS(=O)(=O)c1cc(N2CCN(c3ncc(C(=O)OC)c(C(F)(F)F)n3)[C@H](C(C)C)C2)ccc1F: 503 (59) %
CS(=O)(=O)c1cc(N2CCN(C[C@H]3CC[C@H](C(F)(F)F)CC3)[C@H](c3ccccc3)C2)ccc1CO (single isomer, unassigned): 11556 (50) %
CS(=O)(=O)c1cc(N2CCN(Cc3ccc(C(F)(F)F)c(Cl)c3)C(c3ccccc3)C2)ccc1CO (centres unmarked): 914 (96) %
CS(=O)(=O)c1cccc(N2CCN(C[C@H]3CC[C@](C)(O)CC3)[C@@H](c3ccccc3)C2)c1 (single isomer, unassigned): 4661 (6) %

QUERY: Give Cell LXRα efficacy; test system Gal4 DNA binding domain fused to the LBD of LXRα in HEK293 cells (Homo sapiens (Human)); compound CS(=O)(=O)c1cccc(N2CCN(Cc3ccc(OC(F)F)cc3)[C@@H](c3ccccc3)C2)c1
RESULT: 3753 (7) %

###

This listing pairs compounds with measured pKi.
- assayed_target: UniProt P55055
- test_protocol: biochemical
- Assay type: binding
- study_conditions: read-out: LXRβ Binding Ki
Please keep in mind that pKi is minus log10 of the molar concentration; only the number is needed.

# example entries with known answers
CNS(=O)(=O)c1cc(N2CCN(c3ncc(C(=O)OC)c(C(F)(F)F)n3)[C@H](C(C)C)C2)ccc1F [9-6]: 8.10
COC(=O)c1cnc(N2CCN(c3ccc(F)c(S(C)(=O)=O)c3)C[C@H]2C(C)C)nc1C(F)(F)F [9-2]: 8.00

QUERY: Answer with the recorded pKi of CC(C)[C@@H]1CN(c2ccc(Cl)c(S(C)(=O)=O)c2)CCN1c1ncc(CO)c(C(F)(F)F)n1 [11-3] only.
RESULT: 8.22

QUERY: Answer with the recorded pKi of CC(C)[C@@H]1CN(c2cccc(S(N)(=O)=O)c2)CCN1c1nccc(C(F)(F)F)n1 [7-60] only.
RESULT: 6.84

QUERY: Answer with the recorded pKi of CS(=O)(=O)c1cccc(N2CCN(C[C@H]3CC[C@@](C)(O)CC3)[C@@H](c3ccccc3)C2)c1 (single isomer, unassigned) [48-5] only.
RESULT: 6.91

QUERY: Answer with the recorded pKi of CC(C)[C@@H]1CN(c2ccc(-c3nc(C#N)cs3)c(S(C)(=O)=O)c2)CCN1c1ncc(CO)c(C(F)(F)F)n1 [Cpd No 11-12] only.
RESULT: 8.10

QUERY: Answer with the recorded pKi of CC(C)(O)c1cnc(N2CCN(c3ccc(F)c(S(C)(=O)=O)c3)CC2C(C)(C)C)nc1C(F)(F)F (stereo not shown) [10-4] only.
RESULT: 8.22

###

- assayed_target: Gal4 DNA binding domain fused to the LBD of LXRβ in HEK293 cells (Homo sapiens (Human), UniProt P55055)
- Sequence (P55055 222-460 limits assumed): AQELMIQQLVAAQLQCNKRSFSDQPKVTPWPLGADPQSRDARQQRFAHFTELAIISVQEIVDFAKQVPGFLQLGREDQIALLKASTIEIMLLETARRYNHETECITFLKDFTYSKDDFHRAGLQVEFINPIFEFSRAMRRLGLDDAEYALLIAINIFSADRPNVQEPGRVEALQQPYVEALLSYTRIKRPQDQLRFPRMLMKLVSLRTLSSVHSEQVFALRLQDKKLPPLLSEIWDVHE
- test_protocol: cell-based
- study_conditions: agonist mode; read-out: Cell LXRβ EC50
pEC50: −log10 of the molar value.
Lab note: anything with pEC50 at or over 6 counts as criterion met; the rest go in criterion not met.

See these solved cases before continuing.
CS(=O)(=O)c1cccc(N2CCN(C[C@H]3CC[C@](C)(O)CC3)[C@@H](c3ccccc3)C2)c1 (single isomer, unassigned) [Cpd No 48-7]: criterion not met
NS(=O)(=O)c1cccc(N2CCN(C[C@H]3CC[C@H](C(F)F)CC3)[C@H](c3ccccc3)C2)c1 (single isomer, unassigned) [48-20]: criterion not met
CS(=O)(=O)c1cccc(N2CCN(C[C@H]3CC[C@H](C(F)(F)F)CC3)[C@@H](c3ccccc3)C2)c1 (single isomer, unassigned) [48-33]: criterion met
CS(=O)(=O)c1cccc(N2CCN(C[C@H]3CC[C@@H](C(F)(F)F)CC3)[C@@H](c3ccccc3)C2)c1 (single isomer, unassigned) [48-31]: criterion met

QUERY: Record NS(=O)(=O)c1cccc(N2CCN(C[C@H]3CC[C@H](C(F)(F)F)CC3)[C@H](c3ccccc3)C2)c1 (single isomer, unassigned) [48-36] ; criterion: pEC50 no lower than 6. Met?
RESULT: criterion not met

QUERY: Record NS(=O)(=O)c1cccc(N2CCN(C[C@H]3CC[C@@H](C(F)F)CC3)[C@@H](c3ccccc3)C2)c1 (single isomer, unassigned) [48-23] ; criterion: pEC50 no lower than 6. Met?
RESULT: criterion met

###

- assayed_target: UniProt Q13133
- test_protocol: Human LXRα coactivator recruitment FRET assay, agonist mode
- Assay type: biochemical
- study_conditions: agonist mode
This listing pairs compounds with measured EC50.

C[C@]1(c2ccccc2)CN(c2cccc(S(C)(=O)=O)c2)CCN1Cc1ccc(C(F)(F)F)cc1 (single isomer, unassigned): 3 µM

QUERY: Answer with the recorded EC50 of CC(C)C[C@@H]1CN(c2cccc(S(C)(=O)=O)c2)CCN1C(=O)OC(C)(C)C only.
RESULT: 1.68 µM

QUERY: Answer with the recorded EC50 of NS(=O)(=O)c1cccc(N2CCN(C[C@H]3CC[C@@H](C(F)(F)F)CC3)[C@H](c3ccccc3)C2)c1 (single isomer, unassigned) only.
RESULT: 2.31 µM

QUERY: Answer with the recorded EC50 of CC(C)(C)OC(=O)N1CCN(c2cccc(S(C)(=O)=O)c2)C[C@H]1Cc1ccccc1 only.
RESULT: 0.105 µM

QUERY: Answer with the recorded EC50 of CS(=O)(=O)c1cccc(N2CCN(CC3CCC(O)(C(F)(F)F)CC3)[C@@H](c3ccccc3)C2)c1 (stereo partly shown) only.
RESULT: 1.52 µM

QUERY: Answer with the recorded EC50 of NS(=O)(=O)c1cccc(N2CCN(C[C@H]3CC[C@H](C(F)(F)F)CC3)[C@@H](c3ccccc3)C2)c1 (single isomer, unassigned) only.
RESULT: 2.35 µM

QUERY: Answer with the recorded EC50 of CC(C)[C@H]1CC[C@H](CN2CCN(c3cccc(S(C)(=O)=O)c3)C[C@H]2c2ccccc2)CC1 (single isomer, unassigned) only.
RESULT: > 50 µM
